- ASSAY EXPLANATION: qHTS profiling of the MIPE4 collection as inhibitors of Plasmodium falciparum (DD2) proliferation (Rep 2) (AID 743346)
- EXPERIMENTAL CONTEXT: P. falciparum Dd2 in erythrocytes, SYBR Green DNA, 72 h; at 28.5 µM unless noted
PROPERTY LABEL: parasite growth, % of control (lower = inhibition) (%)

- C[C@]12CC[C@@H]3c4ccc(O)cc4CC[C@H]3[C@H]1CC[C@H]2O: 74
- CC(C)N(CC[C@H](c1ccccc1)c1cc(CO)ccc1O)C(C)C: 26.5
- O=C(O)C=Cc1ccc(Cn2ccnc2)cc1: 96.2
- O=S(=O)(O)CCSSCCS(=O)(=O)O: 69.9
- C#C[C@]1(O)CC[C@@H]2[C@@H]3CCC4=CC(=O)CC[C@@H]4[C@H]3CC[C@@]21CC: 51.5
- OCCN1C[C@H](O)[C@@H](O)[C@H](O)[C@@H]1CO: 85.5

* * *

- ASSAY EXPLANATION: qHTS Screen of the MIPE 4.0 Collection Against Ewings Sarcoma (TC32) (AID 1259256); further: nearly all actives have a fitted effect of over 45% in size
- EXPERIMENTAL CONTEXT: TC32 Ewing sarcoma viability, CellTiter-Glo, 48 h; series mostly up to 45.8 µM
Inconclusive results are not listed. Activity calls are given as the source filed them. The call rests on the fitted dose curve; in most records, active means well fitted inhibition curve with a large enough effect; inconclusive means small, poorly fitted or top-dose-only effect; inactive means no such curve, though single readings can be large or run the other way.
Labels: active, inactive

- CCN(CC)Cc1ccc2cc(COC(=O)Nc3ccc(C(=O)NO)cc3)ccc2c1: active
- O=C(Nc1ccc(Oc2ccnc3[nH]ccc23)c(F)c1)c1cccn(-c2ccc(F)cc2)c1=O: inactive
- C[C@@]12C(=O)OC(=O)[C@@]1(C)C1CCC2O1: active
- CN1CCc2c(c3ccccc3n2Cc2ccc(C(=O)NO)cc2)C1: active
- Cc1ccc(-n2[nH]c(C)c(N=Nc3cccc(-c4cccc(C(=O)O)c4)c3O)c2=O)cc1C: active
- OC[C@H]1OC(O)C[C@@H](O)[C@H]1O (stereo not given in full): inactive
- CN(C)c1ccc2cc(C(=O)N[C@@H](CCCN=C(N)CCl)C(=O)NCc3ccccc3)ccc2c1: active
- CC(O)(C#Cc1ccc2c(c1)N(c1nc(N)ncc1Cl)CC2)c1nccs1 (stereo not given): active
- c1cc(CN2CCCNCCNCCCNCC2)ccc1CN1CCCNCCNCCCNCC1: inactive
- CC(=O)O[C@H]1C[C@@H]2CC[C@H]3[C@H]4C[C@H]([N+]5(C)CCCCC5)[C@@H](OC(C)=O)[C@@]4(C)CC[C@@H]3[C@@]2(C)C[C@H]1[N+]1(C)CCCCC1: active
- C=CC(=O)Nc1cccc(Nc2nc(NC3CCC(N(C)C)CC3)nc3c2ncn3C(C)C)c1 (stereo not given): active
- C[C@@H](Cc1cc2c(c(C(N)=O)c1)N(CCCO)CC2)NCCOc1ccccc1OCC(F)(F)F: inactive
- O=C(NCc1ccccc1)[C@H](Cc1ccccc1)NC(=O)[C@@H]1O[C@@H]1C(=O)NCCc1ccc(O)cc1: active
- O=C(C[C@@H]1CC=CCCC(=O)O[C@H](c2ccccc2)CNC1=O)NCc1ccc(Cl)cc1: inactive
- C[C@H](NC(=O)Cc1cc(F)cc(F)c1)C(=O)N[C@H](C(=O)OC(C)(C)C)c1ccccc1: inactive
- N#Cc1cc(NC(=O)Nc2nnc(-c3ccncc3)s2)ccc1-c1cn[nH]c1: inactive
- NC(=O)c1ncn([C@@H]2O[C@H](CO)[C@@H](O)[C@@H]2O)c1N: inactive
- COc1cccc2c1C(=O)c1c(O)c3c(c(O)c1C2=O)C[C@@](O)(C(=O)CO)C[C@@H]3O[C@H]1C[C@H](N)[C@@H](O)[C@H](C)O1: active
- Nc1cccc2c1C(=O)N(C1CCC(=O)NC1=O)C2=O (stereo not given): active
- N#CC(=C(O)c1ccc(Cl)cc1Cl)c1nc2cc(Cl)ccc2c(=O)[nH]1: inactive

Value source: PubChem BioAssay (NCATS)
